# SUBJECT OF TEST: AgLsb1
# PROTOCOL: SPOT peptide array binding signal intensity (averaged, normalized) (arbitrary units (background-subtracted, floor 0; scale differs between SH3 domains)); higher = stronger binding of the SH3 domain to the peptide
For each of the binders below, state its SPOT peptide array binding signal intensity.

Data request: Data request, read-out SPOT peptide array binding signal intensity, for VQPTAAPATPPRHIS
Data returned: 8

Data request: Data request, read-out SPOT peptide array binding signal intensity, for SLSRRRFSLPSMPNV
Data returned: 1240

Data request: Data request, read-out SPOT peptide array binding signal intensity, for DTFLPPPPPPPSNFE
Data returned: ≤ 0

Data request: Data request, read-out SPOT peptide array binding signal intensity, for GTIARPLFLVVLFFI
Data returned: ≤ 0
